Reference source: patent US20120225061A1

- assaySystem: Pim2 kinase (Homo sapiens)
- Sequence (Q9P1W9 whole entry): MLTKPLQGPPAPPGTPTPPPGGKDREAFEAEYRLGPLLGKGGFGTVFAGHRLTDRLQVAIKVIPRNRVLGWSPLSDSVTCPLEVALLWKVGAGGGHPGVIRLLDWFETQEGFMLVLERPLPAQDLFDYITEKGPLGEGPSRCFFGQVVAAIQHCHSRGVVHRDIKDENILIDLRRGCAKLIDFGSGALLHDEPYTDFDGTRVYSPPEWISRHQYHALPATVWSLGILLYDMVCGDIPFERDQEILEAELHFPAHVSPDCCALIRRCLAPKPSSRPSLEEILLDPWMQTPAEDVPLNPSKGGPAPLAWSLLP
- testDescription: Pim2 AlphaScreen assay (high ATP)
parameter: IC50 (nM)

Record excerpt, results attached:
In [3]: df
Out[3]:
                                  structure  observedvalue
0  C[C@H]1C[C@@H](c2ccncc2NC(=O)c2ccc(F)c(-c3c(F)cc(C(C)(C)C#N)cc3F)n2)C[C@@H](N)[C@]1(C)O           2.74
1  C[C@H]1C[C@@H](c2ccncc2NC(=O)c2ccc(F)c(-c3c(F)cc(O[C@H]4CCCOC4)cc3F)n2)C[C@@H](N)[C@]1(C)O           1.47
2  COCCOc1ccc(F)c(-c2nc(C(=O)Nc3cnccc3[C@H]3C[C@@H](N)[C@](C)(O)[C@@H](C)C3)ccc2F)c1F           24.9

a = COCCOc1cc(F)c(-c2nc(C(=O)Nc3cnccc3[C@H]3C[C@@H](N)[C@](C)(O)[C@@H](C)C3)ccc2F)c(F)c1
b = CC[C@]1(O)[C@H](C)C[C@H](c2ccncc2NC(=O)c2ccc(F)c(-c3c(F)cccc3F)n2)C[C@@H]1N
c = C[C@H]1C[C@@H](c2ccncc2NC(=O)c2ccc(F)c(-c3c(F)cc(C4CCOCC4)cc3F)n2)C[C@@H](O)[C@]1(C)O
d = C[C@@H]1C[C@H](c2ccncc2NC(=O)c2ccc(F)c(-c3c(F)cccc3F)n2)C[C@H](N)[C@@]1(C)O
e = C[C@@H]1C[C@H](c2ccncc2NC(=O)c2nc(-c3c(F)cccc3F)c(F)cc2N)C[C@H](O)[C@]1(O)CF
Sort these compounds on IC50 so the largest reading comes first. Form entry: ranked labels (order as requested).
e, b, d, c, a
(e: 4940 nM, b: 1440 nM, d: 476 nM, c: 66.2 nM, a: 6.31 nM)

1 = C[C@H]1C[C@@H](c2ccncc2NC(=O)c2nc(-c3c(F)cccc3F)c(F)cc2N)C[C@@H](N)[C@]1(C)O
2 = C[C@H]1C[C@@H](c2ccncc2NC(=O)c2ccc(F)c(-c3c(F)cc(C4(O)CCCC4)cc3F)n2)C[C@@H](O)[C@]1(C)O
Two entries are listed, 1 and 2 . Which one carries the higher IC50? Mark your selection by writing its label.
2

P = C[C@H]1C[C@@H](c2ccncc2NC(=O)c2ccc(F)c(-c3c(F)cc(OC4CCOCC4)cc3F)n2)C[C@@H](N)[C@]1(C)O
Q = C[C@H]1C[C@@H](c2ccncc2NC(=O)c2csc(-c3c(F)cccc3F)n2)C[C@@H](N)[C@]1(C)O
R = C[C@H]1C[C@@H](c2ccncc2NC(=O)c2ccc(F)c(-c3c(F)cc(O[C@@H]4CCCOC4)cc3F)n2)C[C@@H](N)[C@]1(C)O
Provide the items ranked by increasing IC50. Form entry: ranked labels (order as requested).
R, P, Q
